Ref: paper PMC7248105

biological target: PqsL-Q (Pseudomonas aeruginosa, UniProt Q9HWJ1, C105G/G45R/I43R/R41Y); construct: final models contain residues 3–370; test: FAD fluorescence polarization; X-ray crystal structure

compound | Kd
Cc1cc2nc3c(=O)[nH]c(=O)nc-3n(C[C@H](O)[C@H](O)[C@H](O)COP(=O)(O)OP(=O)(O)OC[C@H]3O[C@@H](n4cnc5c(N)ncnc54)[C@H](O)[C@@H]3O)c2cc1C [FAD] | 37.5 nM
